assayed-target: DENV-4 VLP (Dengue virus serotype 4, strain …, UniProt P09866 114-774)
recorded-metric: koff (s⁻¹)
# output: bare number, implied unit s⁻¹

[[record]]
binder = "DENV4-8C7 (antibody, V domains shown, also called Clone 8C7) VH: QSVEESGGRLVTPGTPLTLTCTVSGIDLSSYEMGWVRQAPGKGLEWIGIIFPSGTIYYANWAKGRFTISKTSTTVDLKITSPTTEDTATYFCGRHGGSLYLNIWGPGTLVTVSL VL: AQVLTQTPSPVSAAVGGTVTINCQASQSVYVNRNLAWYQQKPGQPPKVLIYEASKLASGVPSRFKGSGSGTQFTLTISGVQCDDAATYYCQGEFGCSSADCIAFGGGTEVVVK"
recorded_number = "3.32e-05"


Record summary for DENV4-7F2 (antibody, V domains shown, also called Clone 7F2) VH: QSVEESGGRLVTPGTPLTLTCTVSGIDLSYYAMGWVRQAPGEGLECIGFIDTGDSAYYASWAKGRFTISKTSSTTVDLKITSPTPEDTATYFCGRSLSSYYDWDAFDPWGPGTLVTVSS VL: AYDMTQTPASVEVAVGGTVTINCQASQTIGNLLAWYQQKPGQRPKLLIYRASTLASGVPSRFKGSGSGTQFTLTISGVECADAATYYCQQGASANDIDNSFGGGTAVVVK : reported koff = 3.67e-05

Record summary for DENV4-10A11 (antibody, V domains shown, also called Clone 10A11; 10A1l) VH: QSVEESGGRLVTPGTPLTLTCTVSGINLSFYAMGWVRQAPGKGLECVGFIDTDNSAYYASWAKGRFTISKTSTTVDLKITSPTTEDTATYFCARSLSSFYDWDAFDPWGPGTLVTVSS VL: AYDMTQTPASVEVAVGGTVTIKCLASQSISNLLAWYQQKPGQRPKLLIYRASTLASGVPSRFKGSGSGTQFTLTISGVECADAATYYCQQGASNSDIDNAFGGGTEVVVK : reported koff = 4.17e-05

Record summary for DENV4-5B11 (antibody, V domains shown, also called Clone 5B11) VH: QSVEESGGRLVTPGTPLTLTCTVSGFSLSDSAMSWVRQAPGKGLEWIGYIYAGSGTTYYASWAKGRFTISKTSTTVDLKITSPTTEDTATYFCARATAYVGYGYGDDTFDPWGPGTLVTVSS VL: AYDMTQTPASVEVAVGGTVTIKCQASQSISSYLSWYQQKPGQRPKLLIYRASTLASGVSSRFKGSGSGTEFTLTISGVQCDDAATYYCQQGYSNSDVDNVFGGGTEVVVK : reported koff = 2.36e-05

Record summary for DENV4-7D5 (antibody, V domains shown, also called Clone 7D5) VH: QSVEESGGRLVTPGTPLTLTCTVSGIDLSSWEMGWVRQAPGKGLEWIGIIFPSGTIYYANWAKGRFAISKASTTVDLKITSPTTEDTATYFCGRHGGSLYLNIWGPGTLVTVSL VL: AQVLTQTPSPVSAAVGGTVTINCQASQSVYVNRNLAWYQQKPGQPPKVLIYEASKLASGVPSRFKGSGSGTQFTLTISGVQCDDAATYYCQGEFGCSSADCIAFGGGTEVVVK : reported koff = 3.56e-05
